experimental-system: Integrin alpha-V/beta-8 (Homo sapiens, UniProt P06756+P26012)
assay-info: Inhibition of latency-associated peptide/TGF-beta binding to recombinant human integrin alphaV (Phe31 to Val992 residues) beta8 (Glu43 to Arg684 residues) expressed in CHO cells by ELISA based solid phase binding assay
property: IC50 (µM)

[[record]]
molecule = "COc1c2cccc1C(=O)N[C@@H](CCCNC(=N)N)C(=O)NCC(=O)N[C@@H](CC(=O)O)C(=O)N[C@H](Cc1ccccc1)C(=O)N2"
readout_value = 6.88

[[record]]
molecule = "CC1(C)NC(=O)[C@@H](Cc2ccccc2)NC(=O)[C@H](CC(=O)O)NC(=O)CNC(=O)[C@H](CCCNC(=N)N)NC1=O"
readout_value = 0.806

[[record]]
molecule = "N=C(N)NCCC[C@@H]1NC(=O)C2(CCCCC2)NC(=O)[C@@H](Cc2ccccc2)NC(=O)[C@H](CC(=O)O)NC(=O)CNC1=O"
readout_value = 1.5

[[record]]
molecule = "N=C(N)NCCC[C@@H]1NC(=O)CC2(CCCCC2)CNC(=O)[C@@H](Cc2ccccc2)NC(=O)[C@H](CC(=O)O)NC(=O)CNC1=O"
readout_value = 3.95

[[record]]
molecule = "C[Si]1(C)C[C@@H]2C(=O)N[C@@H](CCCNC(=N)N)C(=O)NCC(=O)NC(CC(=O)O)C(=O)NC(Cc3ccccc3)C(=O)N2C1 (single isomer, unassigned)"
readout_value = 0.319


###

Item-by-item account of pIC50
experimental-system: Integrin alpha-5/beta-1 (Homo sapiens, UniProt P05556+P08648)
assay-info: Inhibition of fibronectin binding to recombinant human integrin alpha5 (Phe42 to Tyr995 residues) beta1 (Gln21 to Asp728 residues) expressed in CHO cells by ELISA based solid phase binding assay
pIC50: −log10 of the molar value.
property: pIC50

[[record]]
compound = "COc1c2cccc1C(=O)N[C@@H](CCCNC(=N)N)C(=O)NCC(=O)N[C@@H](CC(=O)O)C(=O)N[C@H](Cc1ccccc1)C(=O)N2"
property = "pIC50"
readout_value = 6.04

[[record]]
compound = "C[Si]1(C)C[C@@H]2C(=O)N[C@@H](CCCNC(=N)N)C(=O)NCC(=O)NC(CC(=O)O)C(=O)NC(Cc3ccccc3)C(=O)N2C1 (single isomer, unassigned)"
property = "pIC50"
readout_value = 5.97

[[record]]
compound = "N=C(N)NCCC[C@@H]1NC(=O)C2(CCCCC2)NC(=O)[C@@H](Cc2ccccc2)NC(=O)[C@H](CC(=O)O)NC(=O)CNC1=O"
property = "pIC50"
readout_value = 7.06

[[record]]
compound = "CC1(C)NC(=O)[C@@H](Cc2ccccc2)NC(=O)[C@H](CC(=O)O)NC(=O)CNC(=O)[C@H](CCCNC(=N)N)NC1=O"
property = "pIC50"
readout_value = 6.85

[[record]]
compound = "N=C(N)NCCC[C@@H]1NC(=O)CC2(CCCCC2)CNC(=O)[C@@H](Cc2ccccc2)NC(=O)[C@H](CC(=O)O)NC(=O)CNC1=O"
property = "pIC50"
readout_value = 6.21


###

experimental-system: Integrin alpha-IIb/beta-3 (Homo sapiens, UniProt P05106+P08514)
assay-info: Inhibition of fibrinogen binding to human platelet integrin alpha2b beta3 by ELISA based solid phase binding assay
pIC50: −log10 of the molar value.
Item-by-item account of pIC50
property: pIC50

[[record]]
compound = "CC1(C)NC(=O)[C@@H](Cc2ccccc2)NC(=O)[C@H](CC(=O)O)NC(=O)CNC(=O)[C@H](CCCNC(=N)N)NC1=O"
property = "pIC50"
limit_sign = "<"
readout_value = 5.00

[[record]]
compound = "N=C(N)NCCC[C@@H]1NC(=O)CC2(CCCCC2)CNC(=O)[C@@H](Cc2ccccc2)NC(=O)[C@H](CC(=O)O)NC(=O)CNC1=O"
property = "pIC50"
limit_sign = "="
readout_value = 6.18

[[record]]
compound = "C[Si]1(C)C[C@@H]2C(=O)N[C@@H](CCCNC(=N)N)C(=O)NCC(=O)NC(CC(=O)O)C(=O)NC(Cc3ccccc3)C(=O)N2C1 (single isomer, unassigned)"
property = "pIC50"
limit_sign = "<"
readout_value = 5.00

[[record]]
compound = "N=C(N)NCCC[C@@H]1NC(=O)C2(CCCCC2)NC(=O)[C@@H](Cc2ccccc2)NC(=O)[C@H](CC(=O)O)NC(=O)CNC1=O"
property = "pIC50"
limit_sign = "<"
readout_value = 5.00

[[record]]
compound = "COc1c2cccc1C(=O)N[C@@H](CCCNC(=N)N)C(=O)NCC(=O)N[C@@H](CC(=O)O)C(=O)N[C@H](Cc1ccccc1)C(=O)N2"
property = "pIC50"
limit_sign = "="
readout_value = 5.31

